Listing: protein stability index of selected variants
B1: FBXO3 (parent)
chain: HDPLWRRHCKKYWLISEEEKTQKN

- Variants of: B1
- METHOD SUMMARY: protein stability index of a GFP-peptide fusion (GPS, HEK-293T) (PSI 1-6); higher = more stable;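 note: lentivirally expressed fusions sorted by FACS into six bins by GFP to DsRed ratio, PSI derived from sequencing read proportions per bin multiplied by bin number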
- SETTINGS: c terminus: a fixed tail appended
Number only, please.

L4T
4.35
R7H
3.02
T21D
3.25
R7Q
3.54
E19K
2.92

GET /value?item= E17W &field=protein stability index returns 2.37

variant L4S , protein stability index observed: 3.87

// protein stability index lookup, variant = W5N , result: 3.89
